biological target: Kappa-type opioid receptor (Homo sapiens); assay: Agonist activity at recombinant kappa opioid receptor expressed in human U2OS cells coexpressing beta arrestin/EA complex assessed as beta arrestin recruitment after 60 mins by luminescence spectrophotometry
Sequence (P41145 whole entry): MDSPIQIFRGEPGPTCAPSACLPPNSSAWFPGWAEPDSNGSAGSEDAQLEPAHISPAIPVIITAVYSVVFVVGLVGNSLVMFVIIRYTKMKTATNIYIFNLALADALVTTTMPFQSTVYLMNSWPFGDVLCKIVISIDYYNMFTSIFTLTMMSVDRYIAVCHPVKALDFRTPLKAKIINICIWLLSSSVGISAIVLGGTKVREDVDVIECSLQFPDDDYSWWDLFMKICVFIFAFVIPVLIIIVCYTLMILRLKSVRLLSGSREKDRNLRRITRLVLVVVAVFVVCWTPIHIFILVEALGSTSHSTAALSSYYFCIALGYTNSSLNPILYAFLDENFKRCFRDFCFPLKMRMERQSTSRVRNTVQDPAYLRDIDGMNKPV
reportedEndpoint: pEC50
Note on pEC50: it is the negative log10 of concentration, concentration in mol/L.

Query: Give its pEC50 value. Item: CC(C)C[C@@H](NC(=O)[C@@H](Cc1ccccc1)NC(=O)[C@H](N)Cc1ccccc1)C(=O)N[C@H](CCCCN)C(=O)NCC(=O)NCCSC1CC(=O)N(c2ccc(CCC(=O)N3CCC3=O)cc2)C1=O (stereo not given in full)
Reply: 8.52

Query: Recorded pEC50 for CC(C)C[C@@H](NC(=O)[C@@H](Cc1ccccc1)NC(=O)[C@H](N)Cc1ccccc1)C(=O)N[C@H](CCCCN)C(=O)NCC(=O)NCC(=O)NCC(=O)NCCSC1CC(=O)N(c2ccc(CCC(=O)N3CCC3=O)cc2)C1=O (stereo not given in full) , please?
Reply: 8.30

Query: Consider the molecule CC(C)C[C@@H](NC(=O)[C@@H](Cc1ccccc1)NC(=O)[C@H](N)Cc1ccccc1)C(=O)N[C@H](CCCCN)C(=O)NCC(=O)NCC(=O)NCC(=O)NCCSC1CC(=O)N(CCC(=O)NCCOCCOCCC(=O)Nc2ccc(CCC(=O)N3CCC3=O)cc2)C1=O (stereo not given in full) and give its measured pEC50.
Reply: 6.75

Query: Any idea what its pEC50 is? The molecule is CC(C)C[C@@H](NC(=O)[C@@H](Cc1ccccc1)NC(=O)[C@H](N)Cc1ccccc1)C(=O)N[C@H](CCCCN)C(=O)NCC(=O)NCCSC1CC(=O)N(CCC(=O)NCCOCCOCCC(=O)Nc2ccc(CCC(=O)N3CCC3=O)cc2)C1=O (stereo not given in full)
Reply: 5.83

Query: Quick one: pEC50 of `CC(C)C[C@@H](NC(=O)[C@@H](Cc1ccccc1)NC(=O)[C@H](N)Cc1ccccc1)C(=O)N[C@H](CCCCN)C(N)=O` ?
Reply: 8.52
